# Test system: LOX IMVI melanoma
# Assay text: NCI tumour cell line growth inhibition, 48 h
Assay metric: TGI

Exercise: Need TGI of C=CCC1NCCC2=C1C(S(=O)(=O)c1ccc(C)cc1)c1ccccc12 (stereo not given) , thanks.
Key: 23.1 µM

New cases:
Exercise: // returns reported TGI for input CCOC(=O)/C=C(/C(=O)OCC)n1c(=O)c(C)cn(C2CC(N=[N+]=[N-])C(CO)O2)c1=O (stereo not given)
Key: > 100 µM

Exercise: Try this molecule too: "Nc1c(C(=O)Nc2cccc3ccccc23)sc2nc3c(cc12)CCCC3"
Key: > 100 µM

Exercise: Again, but for "Cc1cc(C)cc(Nc2nccc(-c3c(-c4ccc(F)cc4)ncn3C3CCNCC3)n2)c1"
Key: 2.88 µM

Exercise: Then what about the molecule "O=C([C@H](O)[C@@H](O)c1ccc(Br)cc1)C12CC3CC(CC(C3)C1)C2" ?
Key: > 100 µM

###

# System: COLO 205 colon
# Assay text: NCI tumour cell line growth inhibition, 48 h
Assay metric: GI50

Answered cases to consult:
Exercise: Could you share which GI50 value was measured for "CN(C)CCCNC(=O)c1cc2c3ccccc3[nH]c2c2ncccc12" ?
Key: 4.43 µM

Exercise: Now consider COC(=O)C1CC2(c3ccc(C)cc3)C(c3ccc(C)cc3)=C(c3ccc(C)cc3)C1(c1ccc(C)cc1)S2=O (configuration not stated) and answer again.
Key: > 100 µM

As a next step, examine the compound that follows.
Exercise: # input compound: "Cc1sc2nc(-c3ccccn3)c(/C=N/N=C(N)N)n2c1C" ; wanted: its GI50
Key: 4.97 µM

###

# Test system: RXF 393 renal
# Assay text: NCI tumour cell line growth inhibition, 48 h
Assay metric: TGI

Exercise: // TGI lookup, key: "Brc1cccc(C2(CCCC3(c4cccc(Br)n4)OCCO3)OCCO2)n1"
Key: > 100 µM

Exercise: Next up: COC(=O)C1CC2(c3ccc(C)cc3)C(c3ccc(C)cc3)=C(c3ccc(C)cc3)C1(c1ccc(C)cc1)S2=O (stereo not drawn)
Key: > 100 µM

Next:
Exercise: Look up TGI: "O=C(N/C(=C\c1ccc([N+](=O)[O-])cc1)c1nc2[nH]c(=S)[nH]c(=O)c2[nH]1)c1ccccc1"
Key: > 100 µM

###

# Test system: SK-MEL-5 melanoma
# Assay text: NCI tumour cell line growth inhibition, 48 h; in the data active means GI50 below about 0.43 µM; inactive means the rest
Respond only with the outcome that fits, drawn from 1 (active), -1 (inactive)

Exercise: Which outcome was entered for the compound "COC(=O)c1[nH]nc(-c2ccccc2)c1N1CCCCC1" in this test?
Key: -1

Exercise: Next up: "Cc1cc(-c2ccccc2)c(C)n1Cc1ccc(Cl)cc1"
Key: -1

Exercise: Here is the next compound: "Cc1cc2nc3ccc(N=Nc4ccc(N(C)C)cc4)cc3n(-c3ccccc3)c-2cc1=N"
Key: 1

Exercise: And for "Cc1cc(C)cc(Nc2nccc(-c3c(-c4ccc(F)cc4)ncn3C3CCNCC3)n2)c1" ?
Key: -1

--- query ---
Exercise: What was the test verdict on O=C1CC(c2ccccc2)Cc2nc3ccc(Cl)cc3cc21 (stereo not drawn) ?
Key: 1

###

# Tested on: SW-620 colon
# Assay text: NCI tumour cell line growth inhibition, 48 h
Assay metric: TGI

Solved cases (5 shown):
Exercise: Returns the measured TGI for the input molecule. Input: Clc1ccc(OCC2NC3C=CC32)cn1 (stereo not given)
Key: > 100 µM

Exercise: Lookup CCCCCCC(CCl)c1sc(-c2csc(CCNC(=O)OC(C)(C)C)n2)nc1C(=O)OC (stereo not given)
Key: > 100 µM

Exercise: And the next one, "O=[N+]([O-])c1cccc2nc3ccccc3c(NCCC[N+]3([O-])CCCCC3)c12" ?
Key: > 34.8 µM

Exercise: Next molecule up: "FC1CCN(C2(c3cccs3)CCCCC2)CC1"
Key: > 100 µM

Exercise: Param item: "Nc1c(C(=O)Nc2cccc3ccccc23)sc2nc3c(cc12)CCCC3"
Key: > 100 µM

Next:
Exercise: I have this molecule here, CC1(C)CCc2cc3c(cc2O1)OC(C)(C)C1c2c(ccc4c2CCC(C)(C)O4)OC31 (stereo not given) , and I need its recorded TGI.
Key: > 100 µM
